Tested on: biotinyl-Met-oxazolone
Procedure Summary: self-aminoacylation, catalytic enhancement (BMO) (fold over background); higher = more active; k-Seq, kA / k0A0; sequences stand for … in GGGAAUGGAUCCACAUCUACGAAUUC…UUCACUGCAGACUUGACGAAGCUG
Variants at the floor of the assay were thinned out.
Label condition met when self-aminoacylation >= 2; otherwise condition not met.

Sample answers from the record:
AUUAUCCUGGUCAUCGACUGA [Fam2.1 aminoacylation ribozyme variant]: condition not met
AUACUCCUAGGUCAUCGGGUG [Fam2.2 aminoacylation ribozyme variant]: condition met
AAGUUCACUAAUAGUCGCAAG [Fam3.1 aminoacylation ribozyme variant]: condition not met
AUCACCCUGGUCUUCGAGUGA [Fam2.1 aminoacylation ribozyme variant]: condition met
CUCGUUCAAACAAUCGGUCUG [Fam1A.1 aminoacylation ribozyme variant]: condition not met
AUUCACCUAGGUAAUCGCGUG [Fam2.2 aminoacylation ribozyme variant]: condition met
AUUACCCUGGUCUCCGAGUGA [Fam2.1 aminoacylation ribozyme variant]: condition met
AAGUUUGCUAAUAGCCGCACG [Fam3.1 aminoacylation ribozyme variant]: condition not met

Ask: # bool: self-aminoacylation of CUACUUCAAAGAUUCGGUCUG [Fam1A.1 aminoacylation ribozyme variant] >= 2
Reply: condition not met

Ask: Then CUGCUUUAAACAAUCGGUCUG [Fam1A.1 aminoacylation ribozyme variant] ?
Reply: condition not met

Ask: Then AUUAUCCUGGUCAUCAAGUGA [Fam2.1 aminoacylation ribozyme variant] ?
Reply: condition met

Ask: Then GUCCUUCAAACAAUCGGUCUG [Fam1A.1 aminoacylation ribozyme variant] ?
Reply: condition not met

Ask: Then CCACACUUCAUGCAAUCGGUU [Fam1B.1 aminoacylation ribozyme variant] ?
Reply: condition not met

* * *

System: biotinyl-Met-oxazolone
Procedure Summary: self-aminoacylation, catalytic enhancement (BMO) (fold over background); higher = more active; k-Seq, kA / k0A0; sequences stand for … in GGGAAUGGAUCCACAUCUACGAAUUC…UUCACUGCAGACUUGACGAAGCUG
Variants at the floor of the assay were thinned out.
Property Label: self-aminoacylation
Form: value (number only, do not type unit).

Before answering, review these 2 worked examples.
AUUCCCCUGGUCAUCGAGGGA [Fam2.1 aminoacylation ribozyme variant]: 1.29
AUUAGCCUGGUCAUCGACUGA [Fam2.1 aminoacylation ribozyme variant]: 1.21

Ask: Please look up its self-aminoacylation: AUCCACCUAGGUCAUCGGUUG [Fam2.2 aminoacylation ribozyme variant]
Reply: 1.5

* * *

We begin with a simple list: items and their reported self-aminoacylation.
System: biotinyl-Phe-oxazolone
Procedure Summary: self-aminoacylation, catalytic enhancement (BFO) (fold over background); higher = more active; k-Seq, kA / k0A0; sequences stand for … in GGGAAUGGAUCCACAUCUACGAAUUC…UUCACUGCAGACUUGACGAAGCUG
This sample holds only a part of the variants without activity.
Form: value (number only, do not type unit).

Before answering, review these 3 worked examples.
CCACACUUAAAGCGAUCGGUC [Fam1B.1 aminoacylation ribozyme variant]: 0.793
AUUACCAUGGUCGUCGAGUGA [Fam2.1 aminoacylation ribozyme variant]: 0.902
AAGUUUGCUAACAGUCGCAAG [Fam3.1 aminoacylation ribozyme variant]: 21.1

Ask: Please look up its self-aminoacylation: AUUCACCUCGGUUAUCGGGUG [Fam2.2 aminoacylation ribozyme variant]
Reply: 41.1

Ask: Then CCACCCUUCAAGCAAUCGGAC [Fam1B.1 aminoacylation ribozyme variant] ?
Reply: 0.866

Ask: Then GCACACUUCAGGCAAUCGGUC [Fam1B.1 aminoacylation ribozyme variant] ?
Reply: 3.06

Ask: Then CCACACUUCAAGCCAUCGGGC [Fam1B.1 aminoacylation ribozyme variant] ?
Reply: 1.42

Ask: Then AAGUUAGCUAAUAGUCGCAGG [Fam3.1 aminoacylation ribozyme variant] ?
Reply: 4.27

Ask: Then CUACUUUAGACAAUCGGUCUG [Fam1A.1 aminoacylation ribozyme variant] ?
Reply: 0.65

Ask: Then AUUACCCUGUUCACCGAGUGA [Fam2.1 aminoacylation ribozyme variant] ?
Reply: 77.2

Ask: Then CCACCCUUCAAGGAAUCGGUC [Fam1B.1 aminoacylation ribozyme variant] ?
Reply: 3.31

Ask: Then AUUCACCUAGGUUAUCGGAUG [Fam2.2 aminoacylation ribozyme variant] ?
Reply: 0.355

Ask: Then GAGUUUGCUAAUAGUCGAAAG [Fam3.1 aminoacylation ribozyme variant] ?
Reply: 13.3

Ask: Then UAACUUCAAACAAUCGGUCUG [Fam1A.1 aminoacylation ribozyme variant] ?
Reply: 55.3

Ask: Then CUACUUCCAACAGUCGGUCUG [Fam1A.1 aminoacylation ribozyme variant] ?
Reply: 0.496

Ask: Then AUUACCCAGGUCAUCGAGGGA [Fam2.1 aminoacylation ribozyme variant] ?
Reply: 1.52

Ask: Then AUUACCCUAGUCAUGGAGUGA [Fam2.1 aminoacylation ribozyme variant] ?
Reply: 15.5

Ask: Then CCACACUUCAAUCAAUCGAUC [Fam1B.1 aminoacylation ribozyme variant] ?
Reply: 1.25

* * *

Test system: biotinyl-Phe-oxazolone
Procedure Summary: self-aminoacylation, catalytic enhancement (BFO) (fold over background); higher = more active; k-Seq, kA / k0A0; sequences stand for … in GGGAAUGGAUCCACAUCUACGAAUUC…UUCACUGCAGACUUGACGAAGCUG
This sample holds only a part of the variants without activity.
Recorded self-aminoacylation determines the label; the label ranges are 0: < 0.9; 1: ≥ 0.9 and < 20; 2: ≥ 20

Sample answers from the record:
AUUCAUCUAGGACAUCGGGUG [Fam2.2 aminoacylation ribozyme variant]: 1
AUUAUCCUGGUCAUCGACUGA [Fam2.1 aminoacylation ribozyme variant]: 0
AAGUAUGAUAAUAGUCGCAAG [Fam3.1 aminoacylation ribozyme variant]: 1
AUUCACCUAGGGCACCGGGUG [Fam2.2 aminoacylation ribozyme variant]: 2
CUUCACCUAGGUCAUCGGCUG [Fam2.2 aminoacylation ribozyme variant]: 1

Ask: Hi there! Could you help me figure out the category for AUUCGCCUGGGUCAUCGGGUG [Fam2.2 aminoacylation ribozyme variant] please?
Reply: 2

Ask: Then CUACUUCAUACAAUCGAUCUG [Fam1A.1 aminoacylation ribozyme variant] ?
Reply: 0

Ask: Then AAGUUUGCUAAUAGACGCAAG [Fam3.1 aminoacylation ribozyme variant] ?
Reply: 0

Ask: Then AUACUUCAAACAAUCCGUCUG [Fam1A.1 aminoacylation ribozyme variant] ?
Reply: 1

* * *

System: biotinyl-Val-oxazolone
Procedure Summary: self-aminoacylation, catalytic enhancement (BVO) (fold over background); higher = more active; k-Seq, kA / k0A0; sequences stand for … in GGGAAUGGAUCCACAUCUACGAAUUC…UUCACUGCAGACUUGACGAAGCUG
Variants at the floor of the assay were thinned out.
Label class 1 when self-aminoacylation >= 3; otherwise class 0.

Sample answers from the record:
AAGUUUGGGAAUAGUCGCAAG [Fam3.1 aminoacylation ribozyme variant]: class 0
CCACACAUCAAGCAAGCGGUC [Fam1B.1 aminoacylation ribozyme variant]: class 0
AAGUUUGCUAAUAGUCUCCAG [Fam3.1 aminoacylation ribozyme variant]: class 0
AUUACCCUAGUCAUAGAGUGA [Fam2.1 aminoacylation ribozyme variant]: class 1
CUACUUCAAACAAUCGGACUA [Fam1A.1 aminoacylation ribozyme variant]: class 0

Ask: # bool: self-aminoacylation of UAGGUUGCUAAUAGUCGCAAG [Fam3.1 aminoacylation ribozyme variant] >= 3
Reply: class 0

* * *

Test system: biotinyl-Leu-oxazolone
Procedure Summary: self-aminoacylation, catalytic enhancement (BLO) (fold over background); higher = more active; k-Seq, kA / k0A0; sequences stand for … in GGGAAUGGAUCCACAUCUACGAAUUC…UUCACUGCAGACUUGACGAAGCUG
Fewer inactive variants are shown than the library holds.
We begin with a simple list: items and their reported self-aminoacylation.

Before answering, review these 5 worked examples.
GAGUUUGCUAAUAGUCGGAAG [Fam3.1 aminoacylation ribozyme variant]: 1.16
AAGUUUGAUAAUAGUCACAAG [Fam3.1 aminoacylation ribozyme variant]: 0.547
AUUCAUCUAGGUCAUCUGGUG [Fam2.2 aminoacylation ribozyme variant]: 4.25
AAUCACCUAGGUCAGCGGGUG [Fam2.2 aminoacylation ribozyme variant]: 4.16
CUAUUUCAAACAAUCGGGCUG [Fam1A.1 aminoacylation ribozyme variant]: 0.844

Ask: Please look up its self-aminoacylation: CUACUUCAACCAAUCGGACUG [Fam1A.1 aminoacylation ribozyme variant]
Reply: 0.851

Ask: Then AAGUUUGCUAAUAAUCGCAAG [Fam3.1 aminoacylation ribozyme variant] ?
Reply: 0.602

Ask: Then UUACUACAAACAAUCGGUCUG [Fam1A.1 aminoacylation ribozyme variant] ?
Reply: 0.856

Ask: Then AUUCACCUAGGUCAUCGGAUA [Fam2.2 aminoacylation ribozyme variant] ?
Reply: 0.877

Ask: Then AAGUUUGCUAAUAGCCACAAG [Fam3.1 aminoacylation ribozyme variant] ?
Reply: 0.833

Ask: Then CUACUUCAAACAAUAGGUCUG [Fam1A.1 aminoacylation ribozyme variant] ?
Reply: 0.681

Ask: Then AUAACCCUGGCCAUCGAGUGA [Fam2.1 aminoacylation ribozyme variant] ?
Reply: 2.71

Ask: Then CUACUUCAACGAAUCGGUCUG [Fam1A.1 aminoacylation ribozyme variant] ?
Reply: 1.02

Ask: Then AUUACCCUGGUCAUCGAGUUC [Fam2.1 aminoacylation ribozyme variant] ?
Reply: 2.17
